tested on: RL; experiment: Inhibition of proliferation of RL cells; format: cell-based; details: Homo sapiens; Lymphoma cell line RL; read-out: IC50 against RL
pIC50: −log10 of the molar value.
Reported pIC50 values for the following compounds.

Reference set (3 entries):
CNC(=O)Nc1cc2c(cc1F)[C@@]1(CC2)OC(=O)N(CC(=O)N2[C@@H](C)CC[C@H]2c2ccc(F)c(F)c2)C1=O [Example 389]
≥ 6.30
CNC(=O)Nc1ccc2c(c1)CC[C@@]21OC(=O)N(CC(=O)N2[C@@H](C)CC[C@H]2c2ccc(F)c(F)c2)C1=O [Example 201]
≥ 6.30
CNC(=O)Nc1cc2c(cc1F)[C@@]1(CC2)OC(=O)N(CC(=O)N2[C@@H](C)CC[C@H]2c2cc(F)c(F)c(F)c2)C1=O [Example 390]
≥ 6.30

--- query ---
Challenge: Tell me pIC50 reported for CNC(=O)Nc1ccc2c(c1)CC[C@@]21OC(=O)N(CC(=O)N2C(C)CC[C@H]2c2cc(F)c(F)c(F)c2)C1=O (stereo in doubt) [Example 205]
Response given: ≥ 6.30

----------
target: histone acetylase p300 (Homo sapiens, UniProt Q09472)
Sequence (Q09472 whole entry): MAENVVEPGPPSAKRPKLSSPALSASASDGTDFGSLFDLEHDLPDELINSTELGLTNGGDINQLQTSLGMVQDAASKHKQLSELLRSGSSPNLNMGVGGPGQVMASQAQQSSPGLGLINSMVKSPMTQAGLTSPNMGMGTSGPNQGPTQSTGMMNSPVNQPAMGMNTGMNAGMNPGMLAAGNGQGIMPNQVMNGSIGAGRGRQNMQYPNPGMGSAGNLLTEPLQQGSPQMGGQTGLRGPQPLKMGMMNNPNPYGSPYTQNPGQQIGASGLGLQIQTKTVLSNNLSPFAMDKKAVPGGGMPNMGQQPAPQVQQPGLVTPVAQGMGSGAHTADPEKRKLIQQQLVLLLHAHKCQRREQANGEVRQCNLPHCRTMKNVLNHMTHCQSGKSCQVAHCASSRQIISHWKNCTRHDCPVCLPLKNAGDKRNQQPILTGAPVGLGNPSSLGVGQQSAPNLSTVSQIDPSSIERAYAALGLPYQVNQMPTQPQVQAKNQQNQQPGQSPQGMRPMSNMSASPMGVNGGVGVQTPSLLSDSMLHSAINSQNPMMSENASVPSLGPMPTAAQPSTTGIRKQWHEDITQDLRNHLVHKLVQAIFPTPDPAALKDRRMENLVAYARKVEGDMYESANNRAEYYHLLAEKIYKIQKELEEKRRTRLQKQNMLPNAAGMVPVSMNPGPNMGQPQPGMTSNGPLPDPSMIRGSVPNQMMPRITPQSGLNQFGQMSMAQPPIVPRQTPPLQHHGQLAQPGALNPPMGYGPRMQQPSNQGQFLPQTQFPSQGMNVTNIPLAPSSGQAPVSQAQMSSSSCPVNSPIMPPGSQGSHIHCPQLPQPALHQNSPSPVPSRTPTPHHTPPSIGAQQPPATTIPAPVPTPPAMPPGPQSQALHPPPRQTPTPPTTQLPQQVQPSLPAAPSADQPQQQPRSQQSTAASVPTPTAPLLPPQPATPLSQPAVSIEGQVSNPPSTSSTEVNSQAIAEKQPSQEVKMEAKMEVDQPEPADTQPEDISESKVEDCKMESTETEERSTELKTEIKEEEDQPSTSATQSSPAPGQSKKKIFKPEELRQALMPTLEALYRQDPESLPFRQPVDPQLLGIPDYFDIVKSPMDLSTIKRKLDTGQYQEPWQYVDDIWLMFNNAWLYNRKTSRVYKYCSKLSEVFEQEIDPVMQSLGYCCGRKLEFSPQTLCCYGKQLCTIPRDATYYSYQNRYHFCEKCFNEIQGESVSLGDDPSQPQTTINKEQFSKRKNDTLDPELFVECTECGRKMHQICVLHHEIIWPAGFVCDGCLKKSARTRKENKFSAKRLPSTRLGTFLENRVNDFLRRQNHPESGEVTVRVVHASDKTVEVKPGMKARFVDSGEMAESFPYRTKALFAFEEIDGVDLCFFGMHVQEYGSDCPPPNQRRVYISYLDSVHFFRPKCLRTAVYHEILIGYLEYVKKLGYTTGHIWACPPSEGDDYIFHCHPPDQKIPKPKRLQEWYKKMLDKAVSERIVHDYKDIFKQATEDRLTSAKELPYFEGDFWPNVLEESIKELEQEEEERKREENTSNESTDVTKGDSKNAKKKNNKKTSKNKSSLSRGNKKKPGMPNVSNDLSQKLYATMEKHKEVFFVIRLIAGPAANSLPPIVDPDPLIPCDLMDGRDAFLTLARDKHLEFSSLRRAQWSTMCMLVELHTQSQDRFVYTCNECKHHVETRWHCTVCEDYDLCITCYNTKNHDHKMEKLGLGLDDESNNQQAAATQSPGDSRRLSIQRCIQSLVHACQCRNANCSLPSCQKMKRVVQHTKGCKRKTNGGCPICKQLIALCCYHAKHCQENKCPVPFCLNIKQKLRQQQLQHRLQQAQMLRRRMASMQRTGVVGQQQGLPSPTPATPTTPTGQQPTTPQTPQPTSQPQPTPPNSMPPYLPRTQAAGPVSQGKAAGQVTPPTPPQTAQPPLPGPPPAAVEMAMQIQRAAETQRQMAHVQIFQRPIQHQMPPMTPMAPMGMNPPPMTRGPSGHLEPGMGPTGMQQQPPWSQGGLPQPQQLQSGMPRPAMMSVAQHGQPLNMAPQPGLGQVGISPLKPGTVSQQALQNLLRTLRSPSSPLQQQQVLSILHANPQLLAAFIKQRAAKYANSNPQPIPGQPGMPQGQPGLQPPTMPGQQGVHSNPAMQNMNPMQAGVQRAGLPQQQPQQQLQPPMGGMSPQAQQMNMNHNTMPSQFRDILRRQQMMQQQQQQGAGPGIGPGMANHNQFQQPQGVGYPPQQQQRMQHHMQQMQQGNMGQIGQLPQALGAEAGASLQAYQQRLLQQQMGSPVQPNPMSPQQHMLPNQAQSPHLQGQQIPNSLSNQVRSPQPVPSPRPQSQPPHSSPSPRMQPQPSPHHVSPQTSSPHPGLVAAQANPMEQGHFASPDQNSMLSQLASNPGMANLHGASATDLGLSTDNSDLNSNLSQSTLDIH
readout_label: pIC50
To interpret pIC50, take it as minus log10 of a concentration measured in moles per litre.

Reference set (5 entries):
CNC(=O)Nc1ccc2c(c1)CC[C@@]21OC(=O)N(CC(=O)N2C(c3ccc(F)cc3C)CC[C@H]2C)C1=O (stereo partly shown)
7.77
CNC(=O)Nc1cc2c(cc1F)[C@@]1(CC2)OC(=O)N(CC(=O)N2[C@@H](C)CC[C@H]2c2ccc(F)c(F)c2)C1=O
8.72
CC(=O)Nc1ccc2c(c1)CC[C@@]21OC(=O)N(CC(=O)N2[C@@H](C)CC[C@H]2c2ccc(F)cc2)C1=O
7.59
CNC(=O)Nc1ccc2c(c1)CC[C@@]21OC(=O)N(CC(=O)N2[C@@H](C(C)C)CC[C@H]2c2ccc(F)cc2)C1=O
8.35
CNC(=O)Nc1ccc2c(c1)CC[C@@]21OC(=O)N(CC(=O)N2CCCC2c2ccccc2OC)C1=O (stereo partly shown)
7.08

Challenge: Specify the recorded pIC50 for "CNC(=O)Nc1ccc2c(c1)CC[C@@]21OC(=O)N(CC(=O)N2CCC[C@H]2c2ccccc2)C1=O" , system: histone acetylase p300 (Homo sapiens, UniProt Q09472).
Response given: 7.17

Challenge: Specify the recorded pIC50 for "COC(=O)Nc1ccc2c(c1)CC[C@@]21OC(=O)N(CC(=O)N2[C@@H](C)CC[C@H]2c2ccc(F)cc2)C1=O" , system: histone acetylase p300 (Homo sapiens, UniProt Q09472).
Response given: 7.19

----------
test system: HEL; assay: Inhibition of proliferation of HEL cells; format: cell-based; conditions: Homo sapiens; Leukemia cell line HEL; read-out: IC50 against HEL
pIC50: −log10 of the molar value.
Reported pIC50 values for the following compounds.

Reference set (3 entries):
CNC(=O)Nc1ccc2c(c1)CC[C@@]21OC(=O)N(CC(=O)N2C(C)CC[C@H]2c2cc(F)c(F)c(F)c2)C1=O (stereo in doubt) [Example 205]
5.70 to 6.30
CNC(=O)Nc1cc2c(cc1F)[C@@]1(CC2)OC(=O)N(CC(=O)N2[C@@H](C)CC[C@H]2c2ccc(F)c(F)c2)C1=O [Example 389]
≥ 6.30
CNC(=O)Nc1cc2c(cc1F)[C@@]1(CC2)OC(=O)N(CC(=O)N2[C@@H](C)CC[C@H]2c2cc(F)c(F)c(F)c2)C1=O [Example 390]
≥ 6.30

--- query ---
Challenge: Specify the recorded pIC50 for CNC(=O)Nc1ccc2c(c1)CC[C@@]21OC(=O)N(CC(=O)N2[C@@H](C)CC[C@H]2c2ccc(F)c(F)c2)C1=O [Example 201] , system: HEL.
Response given: 5.70 to 6.30
